ASSAY_TARGET: FLuc-N-HiBiT (firefly luciferase) (Photinus pyralis, UniProt P08659, form not given/L550V)
EXPERIMENT_NOTES: SDR assay, FLuc-N-HiBiT
PARTICULARS: SDR; substituted indoline (clade A'); - ATP
PARAMETER_MEASURED: % Activity (max response, - ATP) (%)

Answered cases to consult:
INSERT INTO results (smiles, reported_value) VALUES
  ('Cc1ccc(NC(=O)N2CCc3c(C(=O)NCc4ccco4)cccc32)cc1', 89.24),
  ('O=C(O)c1cccc2c1CCN2C(=O)Nc1ccc(F)cc1', 102.18),
  ('COc1ccc(NC(=O)c2cccc3c2CCN3C(=O)Nc2ccc(F)cc2)c(C)c1', 13.12);

a. CCC(=O)N1CCc2c(C(=O)O)cccc21
b. CCC(C)(C)NC(=O)c1cccc2c1CCN2C(=O)Nc1cccc(C)c1
In: Look at a and b . Which one has the lower recorded % Activity (max response, - ATP) number? # respond with the chosen item's label
Out: a

* * *

ASSAY_TARGET: PKA-N-HiBiT (Homo sapiens, UniProt P17612)
EXPERIMENT_NOTES: SDR assay, PKA-N-HiBiT
PARTICULARS: read-out: PKA SDR Ave SDR50
# pEC50 values compiled below
Value format note: pEC50 is -log10 of concentration (mol/L); just state the number.

Short answer for `COc1ccc2c(Oc3ccc(NC(=O)c4c(C)n(CC(C)(C)O)n(-c5ccccc5)c4=O)nc3)ccnc2c1` : pEC50 was 4.97

Short answer for `Nc1nc(NCCNc2ncc(-n3ccnc3)c(-c3ccc(Cl)cc3Cl)n2)ccc1[N+](=O)[O-]` : pEC50 was 4.89

* * *

ASSAY_TARGET: ABL1-N-HiBiT kinase domain (Homo sapiens, UniProt P00519)
Sequence (P00519 233-500): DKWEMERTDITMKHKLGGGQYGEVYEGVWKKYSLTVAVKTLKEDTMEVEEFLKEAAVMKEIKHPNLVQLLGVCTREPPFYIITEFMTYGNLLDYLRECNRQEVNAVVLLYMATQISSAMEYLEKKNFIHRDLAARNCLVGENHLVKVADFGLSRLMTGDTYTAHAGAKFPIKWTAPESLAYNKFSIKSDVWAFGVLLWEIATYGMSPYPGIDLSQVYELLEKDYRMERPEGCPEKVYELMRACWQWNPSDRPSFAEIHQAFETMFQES
EXPERIMENT_NOTES: ABL1 peptide phosphorylation, Kinase-Glo Plus (KGP) assay, ABL1-N-HiBiT
Type: biochemical
Set-up: containing amino acid residues Asp233-Ser500; His10 (N); made in house; host or cells: E. coli BL21(DE3)
PARTICULARS: read-out: ABL1 KGP Ave IC50
PARAMETER_MEASURED: IC50 (nM)
Field format: number, assumed nM, no unit text.

Short answer for `Cc1ccc(C(=O)Nc2ccc(CN3CCN(C)CC3)c(C(F)(F)F)c2)cc1C#Cc1cnc2[nH]ncc2c1` : IC50 was 11.9

* * *

ASSAY_TARGET: FLuc-C-NLuc (firefly luciferase) (Photinus pyralis, UniProt P08659, form not given/L550V)
Sequence (P08659 2-550 L550V, form open): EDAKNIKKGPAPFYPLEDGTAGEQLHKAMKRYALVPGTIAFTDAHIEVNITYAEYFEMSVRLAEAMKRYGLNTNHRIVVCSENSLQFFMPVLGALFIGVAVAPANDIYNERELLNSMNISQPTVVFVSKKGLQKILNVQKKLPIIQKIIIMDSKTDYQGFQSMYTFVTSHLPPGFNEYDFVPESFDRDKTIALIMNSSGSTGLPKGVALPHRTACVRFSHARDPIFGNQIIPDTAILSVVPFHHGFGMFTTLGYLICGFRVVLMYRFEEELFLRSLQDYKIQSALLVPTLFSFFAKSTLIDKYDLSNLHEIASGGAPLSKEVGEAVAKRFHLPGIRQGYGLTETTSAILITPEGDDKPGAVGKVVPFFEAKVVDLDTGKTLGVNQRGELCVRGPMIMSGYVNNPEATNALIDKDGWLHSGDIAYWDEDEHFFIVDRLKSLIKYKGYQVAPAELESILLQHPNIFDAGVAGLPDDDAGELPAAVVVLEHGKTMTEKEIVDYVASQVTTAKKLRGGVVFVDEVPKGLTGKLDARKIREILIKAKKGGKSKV
EXPERIMENT_NOTES: SDR assay, FLuc-C-NLuc
PARTICULARS: 1 nM FLuc-C-NLuc; normalized activity; Log [Compound], M -4.96
PARAMETER_MEASURED: SDR No ATP

Answered cases to consult:
INSERT INTO measurements (compound, reported_value) VALUES
  ('Cc1ccc(-n2ncc3c(N4CCCCCC4)ncnc32)cc1', 26.3),
  ('O=C(O)c1cccc2c1CCN2C(=O)Nc1ccc(F)cc1', 30.1);

A. O=C(O)CCSc1nnc(-c2ccc(Cl)cc2Cl)o1
B. CNC(=O)c1cccc2c1CCN2C(=O)Nc1ccc(C)cc1
In: Look at A and B . Which one has the lower recorded SDR No ATP number? # respond with the chosen item's label
Out: A
(A: 12.8, B: 23.9)

* * *

ASSAY_TARGET: FLuc-N-HiBiT (firefly luciferase) (Photinus pyralis, UniProt P08659, form not given/L550V)
EXPERIMENT_NOTES: SDR assay, FLuc-N-HiBiT
PARTICULARS: SDR; substituted indoline (clade A'); - ATP
PARAMETER_MEASURED: % Activity (max response, - ATP) (%)

a. Cc1cccc(NC(=O)N2CCc3c(C(=O)NC(C)(C)C)cccc32)c1
b. O=C(NCCc1cccnc1)c1cccc2c1CCN2C(=O)Nc1ccc(F)cc1
c. O=C(O)c1cccc2c1CCN2C(=O)c1ccccc1
d. CNC(=O)c1cccc2c1CCN2C(=O)Nc1ccc(C)cc1
In: Rank entries according to their % Activity (max response, - ATP), from the largest number down. Answer format: the labels, in the requested order.
Out: d, a, b, c

I. CCCCNC(=O)c1cccc2c1CCN2C(=O)Nc1ccccc1
II. CN(Cc1ccccc1)C(=O)c1cccc2c1CCN2C(=O)Nc1ccccc1
III. Cc1ccc(NC(=O)N2CCc3c(C(=O)NCCc4ccccn4)cccc32)cc1
In: Sort ascending by % Activity (max response, - ATP). Answer format: the labels, in the requested order.
Out: II, I, III
(II: 17.23%, I: 25.03%, III: 51.01%)

I. Cc1cccc(NC(=O)N2CCc3c(C(=O)N4CCN(C)CC4)cccc32)c1
II. O=C(NCc1ccco1)c1cccc2c1CCN2C(=O)Nc1ccc(F)cc1
In: Look at I and II . Which one has the lower recorded % Activity (max response, - ATP) number? # respond with the chosen item's label
Out: I

* * *

ASSAY_TARGET: FLuc-C-HiBiT (firefly luciferase) (Photinus pyralis, UniProt P08659, form not given/L550V)
EXPERIMENT_NOTES: SDR assay, FLuc-C-HiBiT
PARTICULARS: 10 nM FLuc-C-HiBiT; normalized activity; Log [Compound], M -6.87
PARAMETER_MEASURED: SDR No ATP

INSERT INTO measurements (compound, reported_value) VALUES
  ('CC(CNC(=O)C1CCN(C(=O)c2ncn3c2COC(c2ccccc2)C3)CC1)c1ccccc1 (centres unmarked)', 10.7),
  ('O=C(O)c1cccc2c1CCN2C(=O)Nc1ccc(F)cc1', 12.5),
  ('COc1ccc(-c2nc(-c3ccc(C(=O)O)cc3)no2)cc1', 10.9),
  ('Fc1ccc(-c2cn3cc(Cc4ccccc4)sc3n2)cc1', 14.4),
  ('CNC(=O)c1cccc2c1CCN2C(=O)Nc1ccc(C)cc1', 11.4),
  ('O=C(O)CCSc1nnc(-c2ccc(Cl)cc2Cl)o1', 12.1),
  ('CC1CCCN(c2ncnc3c2cnn3-c2ccccc2)C1 (centres unmarked)', 12.6),
  ('Cc1ccc(-n2ncc3c(N4CCCCCC4)ncnc32)cc1', 13.4);

* * *

ASSAY_TARGET: FLuc-C-HiBiT (Photinus pyralis)
Construct: firefly luciferase with C-terminal HiBiT tag, E. coli expressed
Sequence (P08659 whole entry, looked up): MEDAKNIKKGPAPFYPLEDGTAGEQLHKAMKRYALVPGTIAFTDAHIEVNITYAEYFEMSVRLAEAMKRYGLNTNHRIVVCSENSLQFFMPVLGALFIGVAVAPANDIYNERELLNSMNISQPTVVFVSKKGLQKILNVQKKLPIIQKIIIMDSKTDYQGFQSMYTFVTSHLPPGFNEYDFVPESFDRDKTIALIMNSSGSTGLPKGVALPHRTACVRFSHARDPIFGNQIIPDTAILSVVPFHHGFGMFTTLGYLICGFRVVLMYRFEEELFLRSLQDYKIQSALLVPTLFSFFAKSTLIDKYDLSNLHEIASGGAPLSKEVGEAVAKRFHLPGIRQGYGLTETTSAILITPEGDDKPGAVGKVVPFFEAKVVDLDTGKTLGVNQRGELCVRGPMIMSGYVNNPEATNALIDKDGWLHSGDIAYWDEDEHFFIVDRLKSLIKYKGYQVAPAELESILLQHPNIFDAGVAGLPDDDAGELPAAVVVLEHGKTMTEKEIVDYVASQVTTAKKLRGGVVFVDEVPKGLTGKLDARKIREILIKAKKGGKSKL
EXPERIMENT_NOTES: biochemical
PARTICULARS: enzyme activity, 10 uM ATP; read-out: IC50 or SDR50 (mM) / FLuc E
PARAMETER_MEASURED: IC50 (mM)

INSERT INTO results (compound, parameter_measured, readout_unit, reported_value) VALUES
  ('Cc1ccc2nc(-c3ccc(NC(=O)CSc4nnc(C)s4)cc3)sc2c1', 'IC50', 'mM', 0.000624),
  ('Cc1cccc(NC(=O)c2cc(-c3ccc4c(c3)OCCO4)on2)c1', 'IC50', 'mM', 0.000442);

P. O=C(N1c2ccccc2CC1c1noc(C2CCOCC2)n1)C1(c2ccccc2)CC1 (stereo not drawn)
Q. Cc1ccc(-n2ncc3c(N(C)C)ncnc32)cc1Cl
In: Look at P and Q . Which one has the lower recorded IC50 number? # respond with the chosen item's label
Out: Q

* * *

ASSAY_TARGET: FLuc-N-HiBiT (firefly luciferase) (Photinus pyralis, UniProt P08659, form not given/L550V)
EXPERIMENT_NOTES: SDR assay, FLuc-N-HiBiT
PARTICULARS: SDR; substituted indoline (clade A'); - ATP
PARAMETER_MEASURED: % Activity (max response, - ATP) (%)

INSERT INTO measurements (smiles, assay_target, parameter_measured, reported_value) VALUES
  ('COc1ccc(NC(=O)N2CCc3c(C(=O)N(C)C)cccc32)cc1', 'FLuc-N-HiBiT (firefly luciferase) (Photinus pyralis, UniProt P08659, form not given/L550V)', '% Activity (max response, - ATP)', 37.35),
  ('COc1ccc(NC(=O)N2CCc3c(C(=O)NCCN4CCCCCC4)cccc32)cc1', 'FLuc-N-HiBiT (firefly luciferase) (Photinus pyralis, UniProt P08659, form not given/L550V)', '% Activity (max response, - ATP)', 26.27),
  ('CN(Cc1ccco1)C(=O)c1cccc2c1CCN2C(=O)Nc1ccccc1', 'FLuc-N-HiBiT (firefly luciferase) (Photinus pyralis, UniProt P08659, form not given/L550V)', '% Activity (max response, - ATP)', 20.13),
  ('O=C(O)c1cccc2c1CCN2C(=O)c1ccc(F)cc1', 'FLuc-N-HiBiT (firefly luciferase) (Photinus pyralis, UniProt P08659, form not given/L550V)', '% Activity (max response, - ATP)', 20.90);

P. CCOC(=O)C1CCN(C(=O)c2cccc3c2CCN3C(=O)Nc2ccccc2)CC1
Q. CCCNC(=O)c1cccc2c1CCN2C(=O)Nc1cccc(C)c1
R. CCN1CCN(CCNC(=O)c2cccc3c2CCN3C(=O)Nc2ccc(C)cc2)CC1
S. COc1ccc(NC(=O)N2CCc3c(C(=O)NCCCN4CCCC4=O)cccc32)cc1
In: Rank entries according to their % Activity (max response, - ATP), from the largest number down. Answer format: the labels, in the requested order.
Out: R, S, Q, P

These measurements were taken from paper PMC12064818.
